Just for reference, paper PMC8757511 is where these values come from.

target: Cdk2-Cyclin A (Homo sapiens, UniProt P24941); assay: biochemical; format: biochemical; conditions: relative to 1
TEST_READOUT: reduction in Cdk2 biochemical inhibition relative to 1

Use the examples below as a reference point.
COMPOUND: CN1CCN(c2ccc(Nc3nccc(-c4cccc(Cl)c4)n3)cc2C(F)(F)F)CC1 [Compound 16]
MEASURED_ON: Cdk2-Cyclin A (Homo sapiens, UniProt P24941)
RESULT: greater than 28 fold
//
COMPOUND: Cc1ccc(-c2ccnc(Nc3ccc(N4CCN(C)CC4)c(C(F)(F)F)c3)n2)cc1 [Compound 12]
MEASURED_ON: Cdk2-Cyclin A (Homo sapiens, UniProt P24941)
RESULT: greater than 28 fold
//
COMPOUND: CNc1cc(-c2ccnc(Nc3ccc(N4CCN(C)CC4)c(C(F)(F)F)c3)n2)ccn1 [Compound 8]
MEASURED_ON: Cdk2-Cyclin A (Homo sapiens, UniProt P24941)
RESULT: 28 fold
//
COMPOUND: CN1CCN(c2ccc(Nc3nccc(-c4ccc(Cl)cc4)n3)cc2C(F)(F)F)CC1 [Compound 11]
MEASURED_ON: Cdk2-Cyclin A (Homo sapiens, UniProt P24941)
RESULT: greater than 28 fold

Please examine the following record next.
Fill blank: measured reduction in Cdk2 biochemical inhibition relative to 1 of the compound CN1CCN(c2ccc(Nc3nccc(-c4ccccc4)n3)cc2C(F)(F)F)CC1 [Compound 9] is ____.
greater than 28 fold
